All values here come from paper PMC7612365.

experiment: Vandetanib concentration in brain and tumor of nude mice; format: in vivo; settings: female, athymic nude, mouse, normal brain, intraperitoneal, combined with everolimus
reported-metric: concentration at 2 h

Lookup: concentration at 2 h lookup needed for "COc1cc2c(Nc3ccc(Br)cc3F)ncnc2cc1OCC1CCN(C)CC1" , thanks.
Found: > 15 µM

---

test: Vandetanib concentration in brain and tumor of nude mice; assay type: in vivo; details: female, athymic nude, mouse, tumour (PDX), intraperitoneal, combined with everolimus
reported-metric: concentration at 2 h

Lookup: Which value of concentration at 2 h has been reported for "COc1cc2c(Nc3ccc(Br)cc3F)ncnc2cc1OCC1CCN(C)CC1" in the records?
Found: > 15 µM
